The following compounds are shown together with reported viability, T/C values.
# Tested on: 361931-004-R-J1-PDC multicell spheroid viability;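 note: spheroids exposed to agents for seven days before readout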
# test_method_notes: Anticancer human tumor 361931-004-R-J1-PDC patient-derived colon adenocarcinoma cell line growth inhibition [PI3K]
# measurement_context: second compound 0.316 µM; first compound 0.0949 µM; stronger effect = lower value
# Excerpt: Combinatorial screen of targeted agents with the PI3K inhibitors inavolisib, alpelisib, duvelisib, and copanlisib in multi-cell type tumor spheroids A high-throughput screen of multi-cell type tumor spheroids was designed to identify active combinations of targeted small molecules and PI3K pathway inhibitors. […] Compounds. […] If the clinical Cmax for an agent had not been determined, the highest concentration tested was 10 microM. […]
Just the number please, in %, no unit attached.

- Cn1cnc2c(F)c(Nc3ccc(Br)cc3Cl)c(C(=O)NOCCO)cc21 + COc1c(OCCCN2CCOCC2)ccc2c3n(c(=NC(=O)c4cnc(N)nc4)nc12)CCN3: 28.9
- Cn1cnc2c(F)c(Nc3ccc(Br)cc3Cl)c(C(=O)NOCCO)cc21 + Cc1nc(NC(=O)N2CCCC2C(N)=O)sc1-c1ccnc(C(C)(C)C(F)(F)F)c1: 79.2
- Cn1cnc2c(F)c(Nc3ccc(Br)cc3Cl)c(C(=O)NOCCO)cc21 + CC(Nc1ccc2c(c1)OCCn1cc(N3C(=O)OCC3C(F)F)nc1-2)C(N)=O: 63.9

API: the following record is the query input.
IN: Any idea what viability, T/C came out for Cn1cnc2c(F)c(Nc3ccc(Br)cc3Cl)c(C(=O)NOCCO)cc21 + CC(Nc1ncnc2nc[nH]c12)c1cc2cccc(Cl)c2c(=O)n1-c1ccccc1 on 361931-004-R-J1-PDC multicell spheroid viability?
OUT: 88.8
